The values you see were collected from ChEMBL document CHEMBL4689842.

Catalogue of molecules with associated Growth Rate
# System: U2OS
# assay_summary: Incucyte cell viability with U2OS; note: filed as whole numbers so only -1 and 0 and 1 occur
# Format: toxicity, cell-based
# condition_description: human, 12 h, 10 µM, compound concentration 10 uM, replicate number 1, timepoint 12 hours
// print number alone

molecule: O=C(NS(=O)(=O)c1ccc(NCC2CCOCC2)c([N+](=O)[O-])c1)c1ccc(N2CCN(Cc3ccc(C(F)(F)F)cc3-c3ccc(Cl)cc3)CC2)cc1Oc1cnc2[nH]ccc2c1
Growth Rate: 1
//
molecule: CCOC(=O)c1c(C)[nH]c2ccc3c(c12)CN1CCc2cc(OC)ccc2C1O3 (stereo not drawn)
Growth Rate: 0
//
molecule: C=CC(=O)N1CCC([C@@H]2CCNc3c(C(N)=O)c(-c4ccc(Oc5ccccc5)cc4)nn32)CC1
Growth Rate: 0
//
molecule: CO[C@H]1CC[C@H](CNc2ccc(S(=O)(=O)NC(=O)c3ccc(N4CCN(CC5=C(c6ccc(Cl)cc6)CC(C)(C)CC5)CC4)cc3Oc3cnc4[nH]ccc4c3)cc2[N+](=O)[O-])CC1
Growth Rate: 0
//
molecule: O=C1NC(c2ccccn2)Sc2ccccc21 (stereo not drawn)
Growth Rate: 0

Query: GET /values?readout=Growth Rate&system=U2OS&item= O=C(Nc1ccc(-c2ccnc(Nc3ccc(N4CCOCC4)cc3)n2)cc1)[C@@H]1CCCN1
Response: 1

Query: Find Growth Rate (U2OS) for the entry CC(C)c1onc(-c2c(Cl)cccc2Cl)c1COc1ccc(/C=C/c2cccc(C(=O)O)c2)c(Cl)c1
Response: 1

Query: For U2OS, provide Growth Rate of O=C1N/C(=N/c2ccccc2F)S/C1=C\c1ccc(C(=O)O)cc1 please.
Response: 1

###

# Tested on: U2OS
# assay_summary: Multiplex assay against U2OS
# Format: toxicity, cell-based
# condition_description: human, 12 h, 10 µM, compound concentration 10 uM, replicate 2
Entries and their measured Population Pyknosed Nuclei (%) follow.
Number in %, nothing else.

compound: CCn1c(=O)c(-c2ccc(-c3cncs3)cc2Cl)cc2cnc(Nc3ccc(N4CCN(C)CC4)cc3)nc21
u: %
Population Pyknosed Nuclei (%): 12

compound: CCn1cc(-c2ccnc3[nH]c(-c4cccc(CN(C)C)c4)cc23)c(-c2ccc(NC(=O)N(C)C)cc2)n1
u: %
Population Pyknosed Nuclei (%): 27

compound: COc1cc2ncnc(Nc3ccc(F)c(Cl)c3)c2cc1NC(=O)/C=C/CN1CCCCC1 [DACOMITINIB ANHYDROUS]
u: %
Population Pyknosed Nuclei (%): 2

compound: O=C(Nc1ccc(-c2ccnc(Nc3ccc(N4CCOCC4)cc3)n2)cc1)[C@@H]1CCCN1
u: %
Population Pyknosed Nuclei (%): 14

compound: O=C1NC(=O)C(c2cnc3ccccn23)=C1c1cn2c3c(cc(F)cc13)CN(C(=O)N1CCCCC1)CC2
u: %
Population Pyknosed Nuclei (%): 16

Query: Give its Population Pyknosed Nuclei (%) value. Item: CN1C2CCC1CC(OC(c1ccc(F)cc1)c1ccc(F)cc1)C2.Cl (stereo unspecified)
Response: 13

###

# System: Fibroblast
# assay_summary: Multiplex assay against human fibroblast
# Format: toxicity, cell-based
# condition_description: 24 h, 1 µM, compound concentration 1 uM, replicate 1
measured_parameter: Population Mitotic Cells (%)
Write the answer as a number in %, unit excluded.

Example entries begin here.
molecule: Cc1cc(C)c(S(=O)(=O)N(Cc2ccc(-c3cccc(S(C)(=O)=O)c3)cc2)Cc2ccc(C(F)(F)F)o2)c(C)c1
Population Mitotic Cells (%): 54

molecule: CN1C2CCC1CC(OC(c1ccc(F)cc1)c1ccc(F)cc1)C2.Cl (centres undefined)
Population Mitotic Cells (%): 46

molecule: CNC(=O)c1ccc(Nc2nc(OC3CCCC3)c3c(-c4ccc5nc(C)oc5c4)c[nH]c3n2)c(OC)c1
Population Mitotic Cells (%): 32

Now for the molecule whose Population Mitotic Cells (%) we want.
Query: What value of Population Mitotic Cells (%) has been recorded for this entry: O=C1N/C(=N/c2ccccc2F)S/C1=C\c1ccc(C(=O)O)cc1
Response: 45
